The reported numbers originate from patent US20250154144A1.

- Target or test system: IRAK4 (Homo sapiens, UniProt Q9NWZ3)
- Sequence (Q9NWZ3 whole entry): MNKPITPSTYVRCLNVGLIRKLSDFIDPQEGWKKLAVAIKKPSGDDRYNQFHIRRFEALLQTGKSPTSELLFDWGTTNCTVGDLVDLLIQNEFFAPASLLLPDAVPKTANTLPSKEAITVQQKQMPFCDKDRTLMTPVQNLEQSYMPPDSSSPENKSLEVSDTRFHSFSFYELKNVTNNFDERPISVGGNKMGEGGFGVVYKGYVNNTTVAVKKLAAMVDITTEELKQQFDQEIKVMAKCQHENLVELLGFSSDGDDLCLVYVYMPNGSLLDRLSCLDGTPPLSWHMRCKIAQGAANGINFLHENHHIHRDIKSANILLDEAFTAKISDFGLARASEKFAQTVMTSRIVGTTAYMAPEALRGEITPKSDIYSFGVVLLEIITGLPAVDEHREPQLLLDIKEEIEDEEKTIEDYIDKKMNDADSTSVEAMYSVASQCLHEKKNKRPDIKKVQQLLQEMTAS
- Method summary: RBC HotSpot Kinase Assay, IRAK4
- Test settings: IRAK4 IC50
pIC50: −log10 of the molar value.
Observation type: pIC50

Molecule	pIC50
CC(C)(O)c1ccc2ncc(-c3cncc(N[C@H]4CNCC[C@@H]4F)n3)n2c1	8.52
CC(O)(c1cn2c(-c3cncc(N[C@@H]4CCCNC4)n3)cnc2cn1)C(F)(F)F (single isomer, unassigned) [Compound 74]	8.40
FC(F)Oc1ccn2c(-c3ccnc(N[C@H]4CNCC[C@@H]4F)n3)cnc2c1	8.52

====

- Target or test system: IRAK1 (Homo sapiens, UniProt P51617)
- Sequence (P51617 whole entry): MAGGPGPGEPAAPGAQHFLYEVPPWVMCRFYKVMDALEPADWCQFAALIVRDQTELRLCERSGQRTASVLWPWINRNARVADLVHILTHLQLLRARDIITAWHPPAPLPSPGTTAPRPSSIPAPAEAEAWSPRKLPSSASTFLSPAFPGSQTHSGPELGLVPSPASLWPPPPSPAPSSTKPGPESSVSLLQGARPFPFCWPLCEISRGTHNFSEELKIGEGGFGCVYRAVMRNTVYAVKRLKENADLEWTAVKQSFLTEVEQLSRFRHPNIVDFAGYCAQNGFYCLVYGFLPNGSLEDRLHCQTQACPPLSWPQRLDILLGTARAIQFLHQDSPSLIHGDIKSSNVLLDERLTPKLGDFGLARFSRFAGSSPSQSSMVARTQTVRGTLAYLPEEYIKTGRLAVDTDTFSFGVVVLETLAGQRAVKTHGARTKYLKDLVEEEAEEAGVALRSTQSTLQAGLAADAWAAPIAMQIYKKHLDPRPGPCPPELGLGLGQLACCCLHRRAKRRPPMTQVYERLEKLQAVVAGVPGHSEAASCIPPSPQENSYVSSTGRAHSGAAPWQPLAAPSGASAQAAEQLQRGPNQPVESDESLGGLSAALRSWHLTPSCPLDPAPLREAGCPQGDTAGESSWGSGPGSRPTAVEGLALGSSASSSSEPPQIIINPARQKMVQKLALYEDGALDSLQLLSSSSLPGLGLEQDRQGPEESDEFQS
- Method summary: RBC HotSpot Kinase Assay, IRAK1
- Test settings: IRAK1 IC50
Observation type: IC50 (nM)

Consider the reported IC50 for these compounds:
Compound	IC50 (nM)
COc1cc2ncc(-c3ccnc(N[C@H]4CNCC[C@@H]4F)n3)n2nc1C1CC1	11
F[C@H]1CNC[C@@H]1Nc1nccc(-c2cnc3cc(OC4CC4)ccn23)n1	13

(A) FC(F)Oc1ccn2c(-c3ccnc(N[C@H]4CNC[C@@H]4F)n3)cnc2c1
(B) CC(O)(c1cn2c(-c3ccnc(N[C@@H]4CCCNC4)n3)cnc2cn1)C(F)(F)F (single isomer, unassigned) [Compound 68]
Exam item: Which value of IC50 is numerically greater: that of A or that of B ? Lab note: record the label of whichever item you select.
Marked response: A
(A: 10 nM, B: 7 nM)
